Molecular target: UniProtKB P41145
Sequence (P41145 whole entry): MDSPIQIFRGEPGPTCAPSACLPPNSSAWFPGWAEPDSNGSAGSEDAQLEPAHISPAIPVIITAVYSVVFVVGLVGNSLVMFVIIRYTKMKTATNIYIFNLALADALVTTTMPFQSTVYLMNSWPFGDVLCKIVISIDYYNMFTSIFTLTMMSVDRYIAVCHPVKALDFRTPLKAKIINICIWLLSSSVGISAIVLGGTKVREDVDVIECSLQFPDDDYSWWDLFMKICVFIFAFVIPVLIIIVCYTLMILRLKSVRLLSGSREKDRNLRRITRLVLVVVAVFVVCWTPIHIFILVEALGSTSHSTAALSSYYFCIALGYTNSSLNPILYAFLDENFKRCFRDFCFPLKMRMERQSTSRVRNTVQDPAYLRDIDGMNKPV
Assay: Inhibition of [125I]-(D-Pro10)-Dynorphin A binding to human kappa opioid receptor from membranes of HEK293 cells
Format: cell membranes
Note that class boundaries on IC50 are Low (below 8 nM), Medium (8 nM to below 1000 nM), High (1000 nM or more)

Here are 5 compounds together with their reported answers.
| compound | classLabel |
| --- | --- |
| O=c1c(-c2cccc(OC(F)(F)F)c2)cccn1C(CN1CCC(O)C1)c1ccccc1 (stereo not given) | Medium |
| O=c1c(-c2ccc(OC(F)(F)F)cc2)cccn1C(CN1CCC(O)C1)c1ccccc1 (stereo not given) | Low |
| O=c1c(-c2ccc(C(F)(F)F)cc2)cccn1C(Cn1ccnc1)c1ccccc1 (stereo not given) | High |
| COc1ccc(OC)c(-c2cccn(C(CN3CCC(O)C3)c3ccccc3)c2=O)c1 (stereo not given) | Low |
| CCN(CC)c1ccc(C(CN2CCCC2)n2cccc(-c3ccc(C(F)(F)F)cc3)c2=O)cc1 (stereo not given) | High |

Q. Looking at O=c1c(-c2ccc(Cl)cc2Cl)cccn1C(CN1CCCC1)c1ccccc1 (stereo not given) , which class would you pick?
A. Low

Q. Looking at COc1ccc(Cl)cc1-c1cccn(C(CN2CCC(O)C2)c2ccccc2)c1=O (stereo not given) , which class would you pick?
A. Medium

Q. Looking at O=c1c(-c2ccccc2)nccn1C(CN1CCCC1)c1ccccc1 (stereo not given) , which class would you pick?
A. High

Q. Looking at O=c1c(-c2ccc(F)cc2)cccn1C(CN1CCC(O)C1)c1ccccc1 (stereo not given) , which class would you pick?
A. Medium

Q. Looking at O=c1c(-c2ccc(C(F)(F)F)cc2)cccn1C(CN1C=CC=CC=N1)c1ccccc1 (stereo not given) , which class would you pick?
A. High
